Recorded values, source ChEMBL document CHEMBL1201862.

System: ACHN
Assay: NCI tumour cell line growth inhibition, 48 h
Calls of active or inactive are those of the source. Cut-off read from the data, not from the text of the source: active = GI50 up to about 1.1 µM and inactive = higher.
Choose one outcome from this list and give only that: yes (active), no (inactive)

CC(=O)Oc1ccc2cc(Oc3ccccc3)c(=O)oc2c1 :: no

Hi team, can someone confirm the assay call for CCCCN1CN2C(=O)C(C(=O)OCC)C(=O)c3sc4nc(SC)nc1c4c32 (stereo not given) ?
no

Next compound up: `CCOC(=O)CC(=O)Sc1ccccc1`
no

For CC(C)(O)C(O)COc1c2c(cc3oc(=O)ccc13)OCO2 (stereo not given) then?
no

Next compound up: `C/C(=N\Nc1nc2ccccc2s1)c1ccc2ccccc2n1`
no

Next up: `O=C(Nc1cccc2ccccc12)c1ccccc1`
no

Next compound up: `CCOC(=O)c1[nH]c2nc(SC)nc(NC)c2c1N`
no

And then CCCCCCCC(CC(=O)NC(CO)C(=O)NC(CO)CC(C)C)OC(=O)CC(CCCCCCC)OC(=O)CC(CCCCCCC)OC1OC(C)C(O)C(OC2OC(C)C(O)C(OC(C)=O)C2O)C1O (stereo not given) , what is it?
no

What do you have for O=c1c(O)c(-c2cc(O)c(O)c(O)c2)oc2cc(O)cc(O)c12 [MYRICETIN] ?
no

Queued: `Cc1ccc2c(ccc(/C=C\c3cc(C)c4cccnc4c3O)[n+]2C)c1`
no

Entry `O=C(C=P(c1ccccc1)(c1ccccc1)c1ccccc1)c1ccccc1-c1ccccc1C(=O)C=P(c1ccccc1)(c1ccccc1)c1ccccc1` please
yes
